These data points were gathered from patent US20220073621A1.

# TESTED_TARGET: T1, hPD-L1-His (human, UniProt Q9NZQ7 19-238)
# T1 construct: Bought protein; also called hPD-L1-His (manufactured by Edison); not shown: His tag
# T1 sequence (Q9NZQ7 19-238 limits assumed): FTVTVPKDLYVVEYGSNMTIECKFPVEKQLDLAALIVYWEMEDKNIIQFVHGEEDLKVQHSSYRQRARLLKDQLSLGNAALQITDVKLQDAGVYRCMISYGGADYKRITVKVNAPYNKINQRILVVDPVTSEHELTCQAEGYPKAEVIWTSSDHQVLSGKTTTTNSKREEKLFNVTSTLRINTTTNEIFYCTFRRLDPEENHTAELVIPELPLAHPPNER
# ASSAY_EXPLANATION: SPR (Biacore T200), antibody on Protein A chip, hPD-L1-His injected, 1:1 fit
Recorded pKd by entry
Worth noting: pKd values are minus log10 of concentrations stated in mol/L.

Would you please look over these solved cases?
BINDER | EXPERIMENTAL_RESULT
6A11-H1K4-IgG1 (antibody, V domains shown) VH: EVQLVESGGGLVQPGGSLRLSCAASGFTFSSFGMHWVRQAPGKGLEWVSYISSGSNTIYYADTVKGRFTISRDNAKNSLYLQMNSLRAEDTAVYYCARNGYDGWYAMDYWGQGTTVTVSS VL: EIVLTQSPATLSASPGERATLSCSASSSVSYIHWFQQKPGQSPRRWIYDTSKLASGIPARFSGSGSGTSYTLTISSMEPEDAATYYCQQWSTNPFTFGQGTKLEIKR | 8.08
6A11-H2K4-IgG1 (antibody, V domains shown) VH: EVQLVESGGGLVQPGGSLRLSCAASGFTFSSFGMHWVRQAPGKGLEWVSYISSGSNTIYYADTVKGRFTISRDNAKNSLYLQMNSLRAEDTAVYYCTRNGYDGWYAMDYWGQGTTVTVSS VL: EIVLTQSPATLSASPGERATLSCSASSSVSYIHWFQQKPGQSPRRWIYDTSKLASGIPARFSGSGSGTSYTLTISSMEPEDAATYYCQQWSTNPFTFGQGTKLEIKR | 8.15

Now, please, on to the next binder.
# lookup: pKd of 3F2-H1K2-IgG1 (antibody, V domains shown) VH: QVQLQESGPGLVKPSETLSLTCTVSGYSITSGYNWHWIRQFPGNGLEWMGYIHHSSITNYNPSLKSRITISRDTSKNQFSLKLSSVTAADTATYYCAREGYDYDWFAYWGQGTLVTVSS VL: DIVLTQSPDFQSVTPKEKVTLSCRASQSISNNLHWYQQKPDESPKLLIKYASQSISGIPSRFSGSGSGTDFTLTINSVEAEDFAMYFCQQSKSWPFTFGQGTRLEIK
9.16
